Each entry below carries its reported composite z-score.
test: binders of probe aFGF10 on microarray, primary screen, stem cell growth factor project, biochemical, small-molecule microarray, fluorescence 635/667 (AID 1071); conditions: higher = more signal;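 also: score merges 667 nm spot intensity and signal to noise from triplicate slides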

Solved cases below.
1. CC(C)NC(=O)[C@@]1(C)c2ccccc2C(=O)N(Cc2cc(C(F)(F)F)cc(C(F)(F)F)c2)[C@H]1c1ccc(CO)cc1 :: -0.477
2. COC(=O)C(CC#Cc1ccc2c(c1)[C@]1(C(=O)N2)[C@H](c2ccc(OCCO)cc2)N2[C@H](c3ccccc3)[C@H](c3ccccc3)OC(=O)[C@H]2[C@@H]1C(=O)N1CCc2cc(OC)c(OC)cc2C1)C(=O)OC :: 1.05
3. CCOC(=O)C[C@H]1[C@H](OC(=O)c2ccc(C(=O)c3ccccc3)cc2)[C@@H](NC(=O)CC(C)C)c2cc(OCCCO)ccc2N1C(=O)c1ccc2ccccc2n1 :: 0.86
4. CC(C)C(CO)N1C(=O)[C@@H]2C3C(=O)OCCC/C=C\[C@H]3OC23C=CCN(CCN2CCOCC2)C(=O)[C@@H]13 (some centres not stated) :: -0.294
5. COCCOC(=O)N1C(=O)[C@@]2(c3ccccc31)[C@H](c1ccccc1OCCO)N1[C@H](c3ccccc3)[C@H](c3ccccc3)OC(=O)[C@H]1[C@@H]2C(=O)N1CCN(c2ncccn2)CC1 :: 0.0228
6. C=C(COC)C(=O)CC[C@@H](OC(C)=O)c1ccc(CO)o1 :: 0.764
7. COCC(=C=CC[C@@H](O)c1cccc(OCCO)c1)C[C@@H](O)c1ccccn1 :: 0.338
8. COCCOC(=O)N1C(=O)[C@@]2(c3cc(C#CCC(C(=O)OC)C(=O)OC)ccc31)[C@H](c1ccccc1OCCO)N1[C@H](c3ccccc3)[C@H](c3ccccc3)OC(=O)[C@H]1[C@@H]2C(=O)N1CCN(c2ncccn2)CC1 :: 0.432

Fill blank: measured composite z-score of the compound `COc1ccc([Si](C)(C)[C@@H]2[C@@H](CC(=O)N3CCC[C@H]3CO)O[C@]3(C(=O)N(c4ccccc4)c4ccccc43)[C@H]2C)cc1` is ____.
0.713

Given the compound `CC(C)C(=C=CC[C@@H](O)c1ccc(OCCO)cc1)C[C@@H](O)COCc1ccccc1` , what is its reported composite z-score?
-0.376

====

Collected composite z-score values appear next to each entry.
test: binders of probe aFST on microarray, primary screen, stem cell growth factor project, biochemical, small-molecule microarray, fluorescence 635/667 (AID 1086); settings: higher = more signal;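 also: score merges 667 nm fluorescence with signal-to-noise of each printed compound spot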

1. COC(=O)[C@]1(CCC(=O)OC(C)(C)C)N=C(c2ccc(OCCCO)cc2)O[C@@H]1c1ccccc1CN=[N+]=[N-] :: 0.773

I am curious: what composite z-score value has been reported for `CCOC(=O)C[C@H]1[C@H](OC(=O)c2ccc(C(=O)c3ccccc3)cc2)[C@@H](NC(=O)CC(C)C)c2cc(OCCCO)ccc2N1C(=O)c1ccc2ccccc2n1` ?
0.334

# input compound: `O=C1C[C@]2(c3ccc([N+](=O)[O-])cc3)C(=O)N(CC(F)(F)F)c3cc(CO)ccc3[C@H]2N1C1CCCCC1` ; wanted: its composite z-score
-0.167

Need composite z-score of `CN(C)C(=O)[C@]1(Cc2ccccc2N=[N+]=[N-])N=C(c2ccc(OCCCO)cc2)O[C@@H]1c1ccccc1N=[N+]=[N-]` , thanks.
1.15

Entry `O=C1c2ccccc2[C@](Cc2ccccc2I)(C(=O)NCC(F)(F)F)[C@H](c2ccc(CO)cc2)N1Cc1ccccc1Cl` has what composite z-score?
0.748

composite z-score for `O=C(CS)NCCCCCCNC(=O)[C@@H]1C[C@@H]2C(=O)N[C@@H](Cc3ccccc3)C(=O)N2[C@@H]1c1cccc(OCCO)c1` ?
0.616

Fill blank: measured composite z-score of the compound `COC(=O)[C@@]1(Cc2ccccc2)[C@H]2c3cc(C(=O)N(C)C)n(Cc4ccsc4Br)c3C[C@H]2CN1C(=O)c1ccccc1` is ____.
1.67

====

assay: small-molecule microarray binders of probe aNog, primary screen, biochemical, biotinylated probe, 635/667 nm fluorescence (AID 1115); conditions: higher = more signal;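 also: probe is biotinylated aNog protein used at 0.15 µg/mL for 1 h at 4 C; z-score combines 667 nm fluorescence of each spot with its signal to noise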
observable: composite z-score
Please respond with just the number, no unit label.

1. CCCC[C@@H]1C[C@H]1[C@@H](NC(=O)C(C)(C)C)c1ccc(C(F)(F)F)cc1 :: 1.52
2. CN1C(=O)C2C=CC(C(O)c3ccco3)N(Nc3ccccc3)C2C1=O (stereo not drawn) :: -0.165
3. C=C(COC)/C(=C/C[C@H](OC(C)=O)c1ccc(CO)o1)c1cc(C(=O)OC)ccc1OC :: -0.0489
4. O=C(CS)NCCCCCCNC(=O)[C@@H]1C[C@@H]2C(=O)NCC(=O)N2[C@@H]1c1cccc(OCCO)c1 :: -0.652

Return reported composite z-score; argument: OCCCC1=CC(c2cccs2)N(Cc2cc3c(cc2Br)OCO3)CC1 (stereo not drawn)
-0.105

# input molecule: `CC(C)=CCN[C@H](CO)c1ccccc1` ; wanted: its composite z-score
-0.278

Return reported composite z-score; argument: `COCCOC(=O)N1C(=O)[C@@]2(c3ccccc31)[C@H](C(=O)N1CCc3cc(OC)c(OC)cc3C1)[C@H]1C(=O)O[C@H](c3ccccc3)[C@H](c3ccccc3)N1[C@@H]2c1ccc(OCCO)cc1`
0.495

Need composite z-score of `NCCCCCNC(=O)[C@@H]1C[C@@H]2C(=O)N[C@@H](Cc3ccccc3)C(=O)N2[C@@H]1c1ccc(O)cc1` , thanks.
-0.144

====

target: Carbonic anhydrase 2 (Homo sapiens) (UniProt P00918); experiment: CAII small-molecule binders, profiling panel, biochemical, small-molecule microarray, Alexa647-labelled CAII (AID 1122); details: CAII-A647 binding fluorescence, higher = more signal
observable: composite z-score
API note: the answer field is a bare number with no unit suffix.

Below, 2 molecules whose answers are already recorded.
1. C=CCN1C(=O)[C@@]2(Cc3ccccc31)N=C(c1ccc(OCCCO)cc1)O[C@H]2c1ccccc1 :: 0.401
2. [N-]=[N+]=NCc1ccccc1C[C@]1(C(N)=O)COC(c2ccc(OCCCO)cc2)=N1 :: 0.656

API: value(readout= composite z-score, system= Carbonic anhydrase 2 (Homo sapiens) (UniProt P00918), query= CC1(C)[C@@H]2CC(C(O)C3C=CC4C(=O)N(Cc5ccccc5)C(=O)C4N3n3cnnc3)=C[C@H]1C2 (some centres undefined) )
0.651

Request: composite z-score, test system Carbonic anhydrase 2 (Homo sapiens) (UniProt P00918), entry C=C(C)[C@@H]1CC=C(C(O)C2C=CC3C(=O)N(C)C(=O)C3N2Nc2ccccc2)CC1 (some centres undefined)
0.372

====

experiment: small-molecule microarray binders of probe aLefty2, primary screen, biochemical, biotinylated probe, 635/667 nm fluorescence (AID 1094); settings: higher = more signal;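 also: score merges spot fluorescence near 667 nm with spot signal-to-noise ratio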
Respond with Fulfilled for composite z-score values of -0.04 and above, Not fulfilled for values below.

Consider the following illustrative entries.
1) CCOC(=O)C[C@H]1[C@H](OC(=O)c2ccc(C(=O)c3ccccc3)cc2)[C@@H](NC(=O)c2ccccc2)c2cc(OCCCO)ccc2N1C(=O)c1ccc2ccccc2n1 :: Fulfilled
2) CCCCC(CC)C(O)C1C=CC2C(=O)N(Cc3ccccc3)C(=O)C2N1n1cnnc1 (stereo not given) :: Fulfilled
3) CN(C)C(=O)[C@]1(Cc2ccccc2N=[N+]=[N-])N=C(c2ccc(OCCCO)cc2)O[C@@H]1c1ccccc1N=[N+]=[N-] :: Fulfilled
4) CC(C)(C)OC(=O)CC[C@]1(C(=O)N2CCOCC2)N=C(c2ccc(OCCCO)cc2)O[C@H]1c1ccccc1N=[N+]=[N-] :: Fulfilled
5) O=C1N[C@@H](Cc2ccccc2)C(=O)N2[C@@H]1C[C@@H](C(=O)O)[C@H]2c1cccc(OCCO)c1 :: Fulfilled

State whether the measured composite z-score reaches -0.04, counting equality as reaching it, for `C[N+](C)(C)CCCC[C@@H]1NC(=O)[C@H]2C[C@@H](C(=O)NCCCCCCNC(=O)CS)[C@@H](c3cccc(OCCO)c3)N2C1=O`
Not fulfilled

Does O=C1C2C=CC(C(O)c3cc(C(F)(F)F)cc(C(F)(F)F)c3)N(n3cnnc3)C2C(=O)N1Cc1ccccc1 (stereo not given) have a reported composite z-score of at least -0.04?
Not fulfilled

====

target: Fibroblast growth factor 10 (Homo sapiens) (UniProt O15520); test: FGF10 binders on small-molecule microarrays, primary screen, biochemical, small-molecule microarray, 635 nm fluorescence (AID 1102); settings: FGF10 binding, fluorescence 635 nm, higher = more signal
Sequence (O15520 whole entry, looked up): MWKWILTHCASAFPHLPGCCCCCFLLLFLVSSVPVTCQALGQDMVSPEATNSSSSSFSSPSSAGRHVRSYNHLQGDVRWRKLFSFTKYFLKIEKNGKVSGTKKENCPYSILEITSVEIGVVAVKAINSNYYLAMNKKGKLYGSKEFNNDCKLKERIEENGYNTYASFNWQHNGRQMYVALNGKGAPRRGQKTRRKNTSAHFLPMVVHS
Lab note: anything with composite z-score at or over 0.3 counts as 1 (yes); the rest go in 0 (no).

1. CCCC[C@@H]1C[C@H]1[C@@H](NC(=O)C(C)(C)C)c1ccc(C(F)(F)F)cc1 :: 0 (no)

Test whether the compound `CCCC#C[Si](O[C@H](CC)c1cn(Cc2cccc(Cl)c2)nn1)(C(C)C)C(C)C` records composite z-score of 0.3 or higher.
1 (yes)

# bool: composite z-score of `Cc1ccc(N2C(=O)c3ccccc3[C@@H](C(=O)NC3CC3)[C@@H]2c2ccc(CO)cc2)nc1` >= 0.3
0 (no)

Has `COc1ccc([Si](C)(C)[C@H]2[C@H](CCO)O[C@@]3(C(=O)N(Cc4ccc(N(C=O)c5ccccc5)cc4)c4ccccc43)[C@@H]2C)cc1` a recorded composite z-score greater than or equal to 0.3?
0 (no)

State whether the measured composite z-score reaches 0.3, counting equality as reaching it, for COc1cc(C(O)C2C=CC3C(=O)NC(=O)C3N2Nc2ccccn2)cc(OC)c1OC (stereo not given)
0 (no)

Say whether `O=C1[C@@]23C=C(Br)[C@H](C[C@@H]2CCOC3)[C@@]12CO2` shows composite z-score of 0.3 or more.
0 (no)
